These entries and their values trace back to PubChem BioAssay (NCI).

Examples of compounds with documented growth inhibition follow.
protocol text: NCI Yeast Anticancer Drug Screen. Data for the rad52 strain (AID 147);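 note: 0% = growth of vehicle-treated control cultures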
condition parameters: S. cerevisiae rad52 mutant growth inhibition; at 11.0 µM; hits give high values
The panel holds about 79,000 compounds, 15% with a hit somewhere; the sample as a whole holds those more often.
Record the value in %, omitting the unit from your answer.

Solved cases below.
compound	recorded measurement
COc1ccc(/C=C2\SC(=S)N(/C=C3\C(=O)N(c4ccccc4)N=C3C)C2=O)cc1OC	25
O=[N+]([O-])c1cc(Cl)ccc1S(=O)(=O)c1ccc(Cl)cc1[N+](=O)[O-]	40

Request: // returns reported growth inhibition for input COc1ccc(N=c2cc(-c3ccccc3)oc3ccccc23)cc1
Result: 1

Request: // returns reported growth inhibition for input Cc1nc2sc3c(c2c(=O)o1)CCCC3
Result: 1

Request: // returns reported growth inhibition for input CCCCS/C(=C(/C#N)C(N)=O)c1cc2c([nH]1)CCCC2
Result: 33

Request: // returns reported growth inhibition for input CC(CC/C(=N/O)c1ccccc1)(CC/C(=N\O)c1ccccc1)[N+](=O)[O-] (stereo unspecified)
Result: -4
